Ref: patent US20250114338A1

- System: ER-alpha MCF7
- PROCEDURE_TEXT: ER-alpha MCF7 HCS EC50; stated as measured by in vitro cell proliferation assays of Examples 902 and 903
- Type: cell-based
- TEST_CONTEXT: Homo sapiens, MCF7, MCF7 cells; Table 2
RESULT_TYPE: EC50 (nM)

C[C@@H]1Cc2c([nH]c3ccc(F)cc23)[C@@H](c2c(F)cc(OC3CN(CCCF)C3)cc2F)N1CC(C)(C)F [Example 242]	5.42

[A] C[C@@H]1Cc2c([nH]c3ccccc23)[C@@H](c2c(F)cc(OCCN3CC(CF)C3)cc2F)N1C(=O)CC1CC1 [Example 157]
[B] C[C@@H]1Cc2c([nH]c3ccccc23)[C@@H](c2c(F)cc(OC3CN(C4COC4)C3)cc2F)N1CC(C)(C)F [Example 194]
[C] C[C@@H]1Cc2c([nH]c3ccccc23)[C@@H](c2c(F)cc(NCCN3CC(CF)C3)cc2F)N1C[C@@](C)(F)CO [Example 352]
[D] C[C@@H]1Cc2c([nH]c3ccccc23)[C@@H](c2c(F)cc(OCCN3CC(CF)C3)cc2F)N1C[C@H](CO)C(F)(F)F [Example 319]
Exam item: Descending sort on EC50 required. Response format: the labels, sorted as the prompt asks.
Marked response: A, C, D, B

[P] C[C@@H]1Cc2c([nH]c3ccccc23)[C@@H](c2ccc(OCCN3CC(CF)C3)cc2)N1C(=O)C(C)(C)F [Example 221]
[Q] C[C@@H]1Cc2c([nH]c3ccccc23)[C@@H](c2c(F)cc(OCCN3CC(CF)C3)cc2F)N1CC(C)(C)C(=O)O [Example 374]
Exam item: Please compare: P and Q . Report which one has the smaller EC50 value. Please identify the chosen entry by its label.
Marked response: Q

[a] CC(C)(F)CN1[C@H](CF)Cc2c([nH]c3ccccc23)[C@H]1c1c(F)cc(OC2CN(CCCF)C2)cc1F [Example 301]
[b] C[C@@H]1Cc2c([nH]c3ccccc23)[C@@H](c2c(F)cc(OC3CN(CCCF)C3)cc2F)N1C[C@H](CO)C(F)(F)F [Example 375]
Exam item: Please compare: a and b . Report which one has the smaller EC50 value. Please identify the chosen entry by its label.
Marked response: a
